B1: glmS ribozyme (parent)
chain: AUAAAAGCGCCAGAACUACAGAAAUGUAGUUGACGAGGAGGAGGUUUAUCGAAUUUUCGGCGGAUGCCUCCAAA

# Variants of: B1
# test: self-cleavage kobs at 40 uM GlcN6P; higher = faster cleavage; RNA array
# condition.label: with glucosamine-6-phosphate
Fewer inactive variants are shown than the library holds.
self-cleavage kobs at 40 uM GlcN6P values, listed per item

As a guide, the following entries are already answered.
>>> df
       alteration                    measurement_name        result
0       G32C U56G  self-cleavage kobs at 40 uM GlcN6P   < 1e-05 s⁻¹
1  A39U U54G U55G  self-cleavage kobs at 40 uM GlcN6P  0.000181 s⁻¹

Task item: Give self-cleavage kobs at 40 uM GlcN6P for A12U G37C A53C U54A
Reply: < 1e-05 s⁻¹
